All values here come from ChEMBL document CHEMBL4393703.

The molecules listed here are annotated with their Activity.
Experiment: Antiproliferative activity against human HTB-54 cells assessed as reduction in cell growth at 10 uM incubated for 48 hrs by MTT assay
Assay type: functional
Design: scale not given: the % may be the effect or the level left

Sample records with Activity:
molecule=O=C1COCC(=O)N1c1ccc([Se][Se]c2ccc(N3C(=O)COCC3=O)cc2)cc1 valuetype=Activity experimentalresult=104.55%
molecule=N#C[Se]c1ccc(NC(=O)c2nccnc2C(=O)O)cc1 valuetype=Activity experimentalresult=96.59%
molecule="O=C(O)C1C2C=CC(O2)C1C(=O)Nc1ccc([Se][Se]c2ccc(NC(=O)C3C4C=CC(O4)C3C(=O)O)cc2)cc1 (centres undefined)" valuetype=Activity experimentalresult=81.47%
molecule=O=C(O)CCC(=O)Nc1ccc([Se][Se]c2ccc(NC(=O)CCC(=O)O)cc2)cc1 valuetype=Activity experimentalresult=88.05%
molecule=O=C1C=CC(=O)N1c1ccc([Se][Se]c2ccc(N3C(=O)C=CC3=O)cc2)cc1 valuetype=Activity experimentalresult=35.58%
molecule="O=C(O)C1CCCCC1C(=O)Nc1ccc([Se][Se]c2ccc(NC(=O)C3CCCCC3C(=O)O)cc2)cc1 (centres undefined)" valuetype=Activity experimentalresult=95.11%
molecule=Nc1ccc([Se][Se]c2ccc(N)cc2)cc1 valuetype=Activity experimentalresult=-95.45%
molecule=O=C(O)/C=C\C(=O)Nc1ccc([Se][Se]c2ccc(NC(=O)/C=C\C(=O)O)cc2)cc1 valuetype=Activity experimentalresult=79.95%

Please examine the following record next.
Prompt line: Query (molecule): "N#C[Se]c1ccc(NC(=O)c2ccccc2C(=O)O)cc1" ; field requested: Activity
Response line: 98.98%
